// data source = the supplement of paper PMC10567573

Exercise: for every item that follows, state its recorded protein stability index.
B1: MED27 (parent)
chain: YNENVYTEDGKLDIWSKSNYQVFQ

variants of: B1; experiment: protein stability index of a GFP-peptide fusion (GPS, HEK-293T) (PSI 1-6); higher = more stable; details: c terminus: a fixed tail appended;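 further: lentivirally expressed fusions sorted by FACS into six bins by GFP to DsRed ratio, PSI derived from sequencing read proportions per bin multiplied by bin number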
Numbers only.

Reference set, count: 3
G10W ... 1.99
K11E ... 2.93
S16I ... 1.98

Below is a list of variants. For each, state its recorded protein stability index.
1. Y6Q
2. N2V
3. Y6T
4. Q24N
5. Y1N
6. G10D

[2.76, 3.18, 2.98, 2.46, 3.35, 2.96]

For every item below, please supply its protein stability index.
1. Y20T
2. E8N
3. S18H

[2.9, 2.62, 2.42]

# per-item lookup of protein stability index; items listed below
1. L12Y
2. S16M
3. E8K
4. Y20R
5. S18Y
6. W15T
7. D9C
8. K17D

[1.93, 1.81, 1.86, 2.59, 2.26, 3.7, 1.64, 2.26]
